These data points were gathered from patent US20260200943A1.

- experimental system: CDK2/CyclinA2 (Homo sapiens)
- Construct: Wild-type, full length CDK2 in complex with wildtype, full length CyclinA2: Carna Cat #04-103; purchased Carna 04-103
- run description: CDK2/Cyclin A2 Mobility Shift Assay (Caliper, Table B)
- Type: biochemical
- study conditions: Caliper, selectivity over CDK1/B1
reported property: CDK2/CCNA2 Caliper 10xKm Ki: CDK2/A2 Selectivity over CDK1/B1

The examples below pair each entry with its known result.
O=C1NCCCCCn2cc(cn2)S(=O)(=O)N2CCC(CC2)Nc2cc([nH]n2)[C@H]2CC[C@H](C2)O1 [Compound 96] | A (A>10)
O=C1NCCCn2cc(cn2)S(=O)(=O)N2CCC(CC2)Nc2cc([nH]n2)[C@H]2CC[C@H](C2)O1 [Compound 95] | B (5≤B<10)
O=C1NCCCNS(=O)(=O)c2ccc(c(F)c2)Nc2cc([nH]n2)[C@H]2CC[C@H](C2)O1 [Compound 98] | A (A>10)
O=C1NCCCCOc2cccc(n2)Nc2ncc(cn2)[C@@H]2CC[C@@H](C2)O1 [Compound 114] | B (5≤B<10)

Sample O=C1NCCCCCNS(=O)(=O)c2ccc(c(F)c2)Nc2cc([nH]n2)[C@H]2CC[C@H](C2)O1 [Compound 90] ; CDK2/CCNA2 Caliper 10xKm Ki: CDK2/A2 Selectivity over CDK1/B1 observed: A (A>10)

Lab book: CDK2/CCNA2 Caliper 10xKm Ki: CDK2/A2 Selectivity over CDK1/B1 of O=C1NCCCCCCn2cc(cn2)S(=O)(=O)N2CCC(CC2)Nc2cc([nH]n2)[C@H]2CC[C@H](C2)O1 [Compound 97] noted as A (A>10)

// CDK2/CCNA2 Caliper 10xKm Ki: CDK2/A2 Selectivity over CDK1/B1 value for O=C1NCCCCCCCNS(=O)(=O)c2ccc(c(F)c2)Nc2cc([nH]n2)[C@H]2CC[C@H](C2)O1 [Compound 92] : A (A>10)
